Recorded values, source ChEMBL document CHEMBL1140819.

Protein target, amino acids: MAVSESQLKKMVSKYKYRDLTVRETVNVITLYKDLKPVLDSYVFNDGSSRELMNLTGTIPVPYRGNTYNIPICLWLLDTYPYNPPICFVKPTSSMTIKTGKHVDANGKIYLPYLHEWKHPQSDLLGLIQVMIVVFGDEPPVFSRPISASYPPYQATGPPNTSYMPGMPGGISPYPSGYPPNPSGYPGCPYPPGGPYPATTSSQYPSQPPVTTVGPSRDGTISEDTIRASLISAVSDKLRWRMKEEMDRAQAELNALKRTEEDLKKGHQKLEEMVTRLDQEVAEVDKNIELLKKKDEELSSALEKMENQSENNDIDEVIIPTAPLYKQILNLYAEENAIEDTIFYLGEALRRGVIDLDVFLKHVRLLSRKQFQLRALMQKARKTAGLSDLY
*1 amine or outer side, *2 acyl side, *3 side chain or, on linkers, in order; H or OH if unused. Where a SMILES comes first, the peptide text is derived from it. [ ]: non-standard residue; d: D form. The star is where a group is joined. ξ: configuration not given here. Fluorescein(5-NHCS) = O=C1OC2(c3ccc(O)cc3Oc3cc(O)ccc32)c2cc(NC(=S)*)ccc21; X18 = O=C([C@@H]1C[C@@H](O/N=C\c2ccc3c(c2)Cc2ccccc2-3)CN1[*:1])[*:2]; X7 = O=C([C@@H]1[C@@H](O/N=C\c2c(F)c(F)c(F)c(F)c2F)CCN1[*:1])[*:2]; X5 = CC(/C=N\O[C@@H]1C[C@@H](C(=O)[*:2])N([*:1])C1)=C\c1ccccc1; X16 = COc1ccc(/C=N\O[C@H]2CCN([*:1])[C@@H]2C(=O)[*:2])cc1O; X14 = CCCCCCCC/C=N\O[C@@H]1C[C@@H](C(=O)[*:2])N([*:1])C1; X42 = O=C([C@@H]1[C@@H](O/N=C\CCc2ccccc2)CCN1[*:1])[*:2]; X41 = CCCCC/C=N\O[C@@H]1C[C@@H](C(=O)[*:2])N([*:1])C1; X44 = O=C([C@@H]1[C@@H](O/N=C\c2ccoc2)CCN1[*:1])[*:2]; X2 = CCCCC/C=N\O[C@H]1C[C@@H](C(=O)[*:2])N([*:1])C1; ξPip = O=C(O)C1CCCCN1; Ava = NCCCCC(=O)O
Attribute: IC50
Numeric only. Scale: µM

Worked examples follow.
{"COMPOUND": "C[C@H](NC(=O)[C@@H](NC(=O)[C@@H]1CCCN1C(=O)[C@H](CCC(=O)O)NC(=O)[C@@H]1CCCN1C(=O)CCCCNC(=S)Nc1ccc2c(c1)C1(OC2=O)c2ccc(O)cc2Oc2cc(O)ccc21)[C@@H](C)O)C(=O)N1CCCCC1C(=O)N1C[C@H](O/N=C\\c2ccc3c(c2)Cc2ccccc2-3)C[C@H]1C(=O)N[C@@H](CCC(=O)O)C(=O)N[C@@H](CCC(=O)O)C(N)=O (some centres undefined) ({Fluorescein(5-NHCS)-Ava}-PEPTA[ξPip][X18]EE-NH2)", "QUANTITY UNIT": "µM", "IC50": 27}
{"COMPOUND": "C[C@H](NC(=O)[C@@H](NC(=O)[C@@H]1CCCN1C(=O)[C@H](CCC(=O)O)NC(=O)[C@@H]1CCCN1C(=O)CCCCNC(=S)Nc1ccc2c(c1)C1(OC2=O)c2ccc(O)cc2Oc2cc(O)ccc21)[C@@H](C)O)C(=O)N1CCCCC1C(=O)N1CC[C@H](O/N=C\\CCc2ccccc2)[C@H]1C(=O)N[C@@H](CCC(=O)O)C(=O)N[C@@H](CCC(=O)O)C(N)=O (some centres undefined) ({Fluorescein(5-NHCS)-Ava}-PEPTA[ξPip][X42]EE-NH2)", "QUANTITY UNIT": "µM", "IC50": 20}
{"COMPOUND": "CCCCC/C=N\\O[C@H]1C[C@@H](C(=O)N[C@@H](CCC(=O)O)C(=O)N[C@@H](CCC(=O)O)C(N)=O)N(C(=O)C2CCCCN2C(=O)[C@H](C)NC(=O)[C@@H](NC(=O)[C@@H]2CCCN2C(=O)[C@H](CCC(=O)O)NC(=O)[C@@H]2CCCN2C(=O)CCCCNC(=S)Nc2ccc3c(c2)C2(OC3=O)c3ccc(O)cc3Oc3cc(O)ccc32)[C@@H](C)O)C1 (some centres undefined) ({Fluorescein(5-NHCS)-Ava}-PEPTA[ξPip][X2]EE-NH2)", "QUANTITY UNIT": "µM", "IC50": 42}

Given CCCCCCCC/C=N\O[C@@H]1C[C@@H](C(=O)N[C@@H](CCC(=O)O)C(=O)N[C@@H](CCC(=O)O)C(N)=O)N(C(=O)C2CCCCN2C(=O)[C@H](C)NC(=O)[C@@H](NC(=O)[C@@H]2CCCN2C(=O)[C@H](CCC(=O)O)NC(=O)[C@@H]2CCCN2C(=O)CCCCNC(=S)Nc2ccc3c(c2)C2(OC3=O)c3ccc(O)cc3Oc3cc(O)ccc32)[C@@H](C)O)C1 (some centres undefined) ({Fluorescein(5-NHCS)-Ava}-PEPTA[ξPip][X14]EE-NH2) , state its recorded IC50.
54

Param item = CCCCC/C=N\O[C@@H]1C[C@@H](C(=O)N[C@@H](CCC(=O)O)C(=O)N[C@@H](CCC(=O)O)C(N)=O)N(C(=O)C2CCCCN2C(=O)[C@H](C)NC(=O)[C@@H](NC(=O)[C@@H]2CCCN2C(=O)[C@H](CCC(=O)O)NC(=O)[C@@H]2CCCN2C(=O)CCCCNC(=S)Nc2ccc3c(c2)C2(OC3=O)c3ccc(O)cc3Oc3cc(O)ccc32)[C@@H](C)O)C1 (some centres undefined) ({Fluorescein(5-NHCS)-Ava}-PEPTA[ξPip][X41]EE-NH2) ; retrieve measured IC50.
41

Requested field: IC50. Item: CC(/C=N\O[C@@H]1C[C@@H](C(=O)N[C@@H](CCC(=O)O)C(=O)N[C@@H](CCC(=O)O)C(N)=O)N(C(=O)C2CCCCN2C(=O)[C@H](C)NC(=O)[C@@H](NC(=O)[C@@H]2CCCN2C(=O)[C@H](CCC(=O)O)NC(=O)[C@@H]2CCCN2C(=O)CCCCNC(=S)Nc2ccc3c(c2)C2(OC3=O)c3ccc(O)cc3Oc3cc(O)ccc32)[C@@H](C)O)C1)=C\c1ccccc1 (some centres undefined) ({Fluorescein(5-NHCS)-Ava}-PEPTA[ξPip][X5]EE-NH2)
13

Reported IC50 for C[C@H](NC(=O)[C@@H](NC(=O)[C@@H]1CCCN1C(=O)[C@H](CCC(=O)O)NC(=O)[C@@H]1CCCN1C(=O)CCCCNC(=S)Nc1ccc2c(c1)C1(OC2=O)c2ccc(O)cc2Oc2cc(O)ccc21)[C@@H](C)O)C(=O)N1CCCCC1C(=O)N1CC[C@H](O/N=C\c2ccoc2)[C@H]1C(=O)N[C@@H](CCC(=O)O)C(=O)N[C@@H](CCC(=O)O)C(N)=O (some centres undefined) ({Fluorescein(5-NHCS)-Ava}-PEPTA[ξPip][X44]EE-NH2) : what is it?
20

So what's the measured IC50 for this one? COc1ccc(/C=N\O[C@H]2CCN(C(=O)C3CCCCN3C(=O)[C@H](C)NC(=O)[C@@H](NC(=O)[C@@H]3CCCN3C(=O)[C@H](CCC(=O)O)NC(=O)[C@@H]3CCCN3C(=O)CCCCNC(=S)Nc3ccc4c(c3)C3(OC4=O)c4ccc(O)cc4Oc4cc(O)ccc43)[C@@H](C)O)[C@@H]2C(=O)N[C@@H](CCC(=O)O)C(=O)N[C@@H](CCC(=O)O)C(N)=O)cc1O (some centres undefined) ({Fluorescein(5-NHCS)-Ava}-PEPTA[ξPip][X16]EE-NH2)
13

Requested field: IC50. Item: C[C@H](NC(=O)[C@@H](NC(=O)[C@@H]1CCCN1C(=O)[C@H](CCC(=O)O)NC(=O)[C@@H]1CCCN1C(=O)CCCCNC(=S)Nc1ccc2c(c1)C1(OC2=O)c2ccc(O)cc2Oc2cc(O)ccc21)[C@@H](C)O)C(=O)N1CCCCC1C(=O)N1CC[C@H](O/N=C\c2c(F)c(F)c(F)c(F)c2F)[C@H]1C(=O)N[C@@H](CCC(=O)O)C(=O)N[C@@H](CCC(=O)O)C(N)=O (some centres undefined) ({Fluorescein(5-NHCS)-Ava}-PEPTA[ξPip][X7]EE-NH2)
19
